# target: Serine/threonine-protein kinase MRCK beta (Homo sapiens)
# setupConditions: at 0.1 µM
metric: inhibition (%)
Please state the figure in %; there is no need to write the unit.

As a guide, the following entries are already answered.
| structureNotation | inhibition [%] |
| --- | --- |
| CN1CCC(n2cnc(-c3ccc(F)cc3)c2-c2ccnc(NCCO)n2)CC1 | -1.48 |
| Cc1cc(O)cc(C)c1/C=C/c1cncc(C(N)=O)c1 | 1.39 |

Report inhibition for Fc1cccc(COc2ccc(Nc3ncncc3C#Cc3ccccc3)cc2Cl)c1 tested on Serine/threonine-protein kinase MRCK beta (Homo sapiens).
-0.25

Report inhibition for O=C(O[C@H]1CN[C@H](C#Cc2cc3ncnc(Nc4ccc5c(cnn5Cc5ccccc5)c4)c3s2)C1)N1CCOCC1 tested on Serine/threonine-protein kinase MRCK beta (Homo sapiens).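 Further: values are mean percent inhibition of MRCKB, screened as part of the GSK PKIS kinase inhibitor set.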
-0.65

* * *

# target: Aurora kinase B (Homo sapiens);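 further: reported values are averaged percent inhibition of Aurora B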
# setupConditions: at 0.1 µM
metric: inhibition (%)
Please state the figure in %; there is no need to write the unit.

As a guide, the following entries are already answered.
| structureNotation | target | number |
| --- | --- | --- |
| FC(F)(F)CNc1nccc(-c2cnn3ncccc23)n1 | Aurora kinase B (Homo sapiens) | 1.65 |
| Fc1ccc(Nc2nccc(-c3c(-c4ccc(C(F)(F)F)cc4)nn4ncccc34)n2)cc1F | Aurora kinase B (Homo sapiens) | 4.71 |
| Cc1c2ccc(N(C)c3ccnc(Nc4cccc(S(N)(=O)=O)c4)n3)cc2nn1C | Aurora kinase B (Homo sapiens) | 12.5 |
| COc1c(C(N)=O)cc(-c2ccc(Cl)cc2)cc1-c1ccc(S(N)(=O)=O)cc1 | Aurora kinase B (Homo sapiens) | 2.21 |
| NS(=O)(=O)c1cccc(N/C=C2\C(=O)Nc3ccccc32)c1 | Aurora kinase B (Homo sapiens) | 6.68 |
| Fc1cccc(COc2ccc(Nc3ncncc3C#Cc3ccccc3)cc2Cl)c1 | Aurora kinase B (Homo sapiens) | -1.58 |
| c1cnn2ncc(-c3ccnc(NCCCN4CCOCC4)n3)c2c1 | Aurora kinase B (Homo sapiens) | 2.38 |
| COc1cc(N2CCN(C(C)C)CC2)ccc1Nc1nc(Nc2cccc(F)c2C(=O)O)c2cc[nH]c2n1 | Aurora kinase B (Homo sapiens) | 4.82 |

What value of inhibition has been reported for the following compound? CC1(C)CC(n2cnc(-c3ccc(F)cc3)c2-c2ccnc(N)n2)CC(C)(C)N1
3.04

What value of inhibition has been reported for the following compound? COc1ccc(Nc2ncc(-c3ccccc3)o2)cc1OC
8.72

* * *

# Test system: Proto-oncogene tyrosine-protein kinase receptor Ret (Homo sapiens), P07949 [Y791F]
# Sequence (P07949 whole entry Y791F): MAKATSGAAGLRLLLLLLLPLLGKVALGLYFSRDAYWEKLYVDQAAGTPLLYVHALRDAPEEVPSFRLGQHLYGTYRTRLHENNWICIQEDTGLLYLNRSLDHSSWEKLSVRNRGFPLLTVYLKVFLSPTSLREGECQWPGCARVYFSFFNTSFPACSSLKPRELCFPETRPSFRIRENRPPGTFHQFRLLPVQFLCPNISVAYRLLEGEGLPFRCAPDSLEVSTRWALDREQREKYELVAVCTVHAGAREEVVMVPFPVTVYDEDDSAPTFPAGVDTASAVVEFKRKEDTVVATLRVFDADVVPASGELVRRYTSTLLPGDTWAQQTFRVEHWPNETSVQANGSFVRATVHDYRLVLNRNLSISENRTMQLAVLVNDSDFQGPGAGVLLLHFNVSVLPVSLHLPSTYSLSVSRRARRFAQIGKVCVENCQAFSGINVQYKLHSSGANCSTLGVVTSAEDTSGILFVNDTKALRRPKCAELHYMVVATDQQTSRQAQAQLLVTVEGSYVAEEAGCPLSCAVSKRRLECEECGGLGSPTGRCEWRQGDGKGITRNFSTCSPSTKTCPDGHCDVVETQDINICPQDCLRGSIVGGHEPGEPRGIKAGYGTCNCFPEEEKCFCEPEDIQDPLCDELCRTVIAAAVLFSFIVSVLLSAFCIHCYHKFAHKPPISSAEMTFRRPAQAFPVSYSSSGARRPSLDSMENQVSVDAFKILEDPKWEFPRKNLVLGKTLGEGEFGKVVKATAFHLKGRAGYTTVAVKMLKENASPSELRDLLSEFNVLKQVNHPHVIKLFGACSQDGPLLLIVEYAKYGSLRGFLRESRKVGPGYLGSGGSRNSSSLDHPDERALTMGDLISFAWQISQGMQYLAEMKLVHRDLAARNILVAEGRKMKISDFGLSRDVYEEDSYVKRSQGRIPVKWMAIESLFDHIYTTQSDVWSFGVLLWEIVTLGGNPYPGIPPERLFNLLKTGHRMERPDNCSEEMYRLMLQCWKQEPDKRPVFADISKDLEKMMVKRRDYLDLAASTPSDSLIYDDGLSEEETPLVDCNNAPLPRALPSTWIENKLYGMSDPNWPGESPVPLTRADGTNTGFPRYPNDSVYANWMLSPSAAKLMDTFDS
# setupConditions: at 1 µM
We begin with a simple list: items and their reported inhibition.
Please state the figure in %; there is no need to write the unit.

| structureNotation | metric | number |
| --- | --- | --- |
| COc1ccc(Nc2ncc(-c3ccccc3)o2)cc1OC | inhibition | 27.2 |
| CCCNc1cccc(-n2ncc3c(N/N=C/c4ccncc4)ncnc32)c1 | inhibition | 65.2 |
| CCn1c(-c2nonc2N)nc2cncc(C(=O)NCCNC)c21 | inhibition | 12.2 |
| Cc1ccc(-c2cc3c(NC(=O)C4CC4)ncnc3o2)cc1 | inhibition | 12.9 |

Report inhibition for COc1c(C(N)=O)cc(-c2ccc(Cl)cc2)cc1-c1ccc(S(N)(=O)=O)cc1 tested on Proto-oncogene tyrosine-protein kinase receptor Ret (Homo sapiens), P07949 [Y791F].
7.43
